- test.system: cynomolgus monkey Factor Bb (cynomolgus monkey)
- assay.text: cell-based or functional assay
A collection of binders and their measured IC50, hemolysis of rabbit RBCs by 5% cynomolgus monkey serum
Output spec: scalar in nM, unitless text.

A selection of reference data follows.
binder: anti-factor Bb monoclonal antibody M10 (antibody, V domains shown, Mouse monoclonal purified from hybridoma supernatant) VH: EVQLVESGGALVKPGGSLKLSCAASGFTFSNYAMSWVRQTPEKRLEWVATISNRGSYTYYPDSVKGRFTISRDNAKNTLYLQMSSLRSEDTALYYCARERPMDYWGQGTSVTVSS VL: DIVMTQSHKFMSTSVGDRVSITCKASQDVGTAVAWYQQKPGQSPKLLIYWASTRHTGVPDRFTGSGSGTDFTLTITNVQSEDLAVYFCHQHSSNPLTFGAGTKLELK
numeric.value: 220
--
binder: anti-factor Bb monoclonal antibody M4 (antibody, V domains shown, Mouse monoclonal purified from hybridoma supernatant; also called Factor B/Bb antibody M4) VH: EVQLQQSGPELVKPGASVKMSCKASGYSFTDYLMNWVKQSHGKSLEWIGRINPYNGDAFYNQRFKGKATLTVDKSSSTAHMELRSLTSEDSALYYCARLENDYGFTYWGQGTLVTVSA VL: DIVMTQAAFSNPVTLGTSASISCSSSKSLLHSNGITYLYWYLQRPGQSPQLLIYRMSNLASGVPDRFSGSGSGTDFTLRISRVEAEDVGVYYCAQMLERPWTFGGGTKLEIK
numeric.value: 25
--
binder: anti-factor Bb monoclonal antibody M12 (antibody, V domains shown, Mouse monoclonal purified from hybridoma supernatant) VH: EVQLQQSGPELVKPGASVKMSCKASGYSFTDYLMNWVKQSHGKSLEWIGRINPYNGDAFYNQRFKGKATLTVDKSSSTAHMELRSLTSEDSALYYCARLENDYGFTYWGQGTLVTVSA VL: DIVMTQAAFSNPVTLGTSASISCSSSKSLLHSNGITYLYWYLQRPGQSPQLLIYRMSNLASGVPDRFSGSGSGTDFTLRISRVEAEDVGVYYCAQMLERPWTFGGGTKLEIK
numeric.value: 28.2

Would you kindly look at the next entry?
## Input // query IC50, hemolysis of rabbit RBCs by 5% cynomolgus monkey serum value for entry anti-factor Bb monoclonal antibody M18 (antibody, V domains shown, Mouse monoclonal purified from hybridoma supernatant) VH: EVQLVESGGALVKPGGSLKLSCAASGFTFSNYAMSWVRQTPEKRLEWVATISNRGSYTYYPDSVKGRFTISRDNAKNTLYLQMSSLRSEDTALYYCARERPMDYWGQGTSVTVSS VL: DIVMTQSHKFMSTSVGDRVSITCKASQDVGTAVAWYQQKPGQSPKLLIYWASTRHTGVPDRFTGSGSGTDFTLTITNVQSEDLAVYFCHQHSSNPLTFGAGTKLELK
## Output 232
